target: human Fatty Acid Synthase (Homo sapiens, UniProt P49327); construct: made in house; assay: Human FAS enzyme assay (decrease in NADPH fluorescence); type: biochemical; details: % inhibition at a concentration of 100 μmolar
Sequence (P49327 whole entry): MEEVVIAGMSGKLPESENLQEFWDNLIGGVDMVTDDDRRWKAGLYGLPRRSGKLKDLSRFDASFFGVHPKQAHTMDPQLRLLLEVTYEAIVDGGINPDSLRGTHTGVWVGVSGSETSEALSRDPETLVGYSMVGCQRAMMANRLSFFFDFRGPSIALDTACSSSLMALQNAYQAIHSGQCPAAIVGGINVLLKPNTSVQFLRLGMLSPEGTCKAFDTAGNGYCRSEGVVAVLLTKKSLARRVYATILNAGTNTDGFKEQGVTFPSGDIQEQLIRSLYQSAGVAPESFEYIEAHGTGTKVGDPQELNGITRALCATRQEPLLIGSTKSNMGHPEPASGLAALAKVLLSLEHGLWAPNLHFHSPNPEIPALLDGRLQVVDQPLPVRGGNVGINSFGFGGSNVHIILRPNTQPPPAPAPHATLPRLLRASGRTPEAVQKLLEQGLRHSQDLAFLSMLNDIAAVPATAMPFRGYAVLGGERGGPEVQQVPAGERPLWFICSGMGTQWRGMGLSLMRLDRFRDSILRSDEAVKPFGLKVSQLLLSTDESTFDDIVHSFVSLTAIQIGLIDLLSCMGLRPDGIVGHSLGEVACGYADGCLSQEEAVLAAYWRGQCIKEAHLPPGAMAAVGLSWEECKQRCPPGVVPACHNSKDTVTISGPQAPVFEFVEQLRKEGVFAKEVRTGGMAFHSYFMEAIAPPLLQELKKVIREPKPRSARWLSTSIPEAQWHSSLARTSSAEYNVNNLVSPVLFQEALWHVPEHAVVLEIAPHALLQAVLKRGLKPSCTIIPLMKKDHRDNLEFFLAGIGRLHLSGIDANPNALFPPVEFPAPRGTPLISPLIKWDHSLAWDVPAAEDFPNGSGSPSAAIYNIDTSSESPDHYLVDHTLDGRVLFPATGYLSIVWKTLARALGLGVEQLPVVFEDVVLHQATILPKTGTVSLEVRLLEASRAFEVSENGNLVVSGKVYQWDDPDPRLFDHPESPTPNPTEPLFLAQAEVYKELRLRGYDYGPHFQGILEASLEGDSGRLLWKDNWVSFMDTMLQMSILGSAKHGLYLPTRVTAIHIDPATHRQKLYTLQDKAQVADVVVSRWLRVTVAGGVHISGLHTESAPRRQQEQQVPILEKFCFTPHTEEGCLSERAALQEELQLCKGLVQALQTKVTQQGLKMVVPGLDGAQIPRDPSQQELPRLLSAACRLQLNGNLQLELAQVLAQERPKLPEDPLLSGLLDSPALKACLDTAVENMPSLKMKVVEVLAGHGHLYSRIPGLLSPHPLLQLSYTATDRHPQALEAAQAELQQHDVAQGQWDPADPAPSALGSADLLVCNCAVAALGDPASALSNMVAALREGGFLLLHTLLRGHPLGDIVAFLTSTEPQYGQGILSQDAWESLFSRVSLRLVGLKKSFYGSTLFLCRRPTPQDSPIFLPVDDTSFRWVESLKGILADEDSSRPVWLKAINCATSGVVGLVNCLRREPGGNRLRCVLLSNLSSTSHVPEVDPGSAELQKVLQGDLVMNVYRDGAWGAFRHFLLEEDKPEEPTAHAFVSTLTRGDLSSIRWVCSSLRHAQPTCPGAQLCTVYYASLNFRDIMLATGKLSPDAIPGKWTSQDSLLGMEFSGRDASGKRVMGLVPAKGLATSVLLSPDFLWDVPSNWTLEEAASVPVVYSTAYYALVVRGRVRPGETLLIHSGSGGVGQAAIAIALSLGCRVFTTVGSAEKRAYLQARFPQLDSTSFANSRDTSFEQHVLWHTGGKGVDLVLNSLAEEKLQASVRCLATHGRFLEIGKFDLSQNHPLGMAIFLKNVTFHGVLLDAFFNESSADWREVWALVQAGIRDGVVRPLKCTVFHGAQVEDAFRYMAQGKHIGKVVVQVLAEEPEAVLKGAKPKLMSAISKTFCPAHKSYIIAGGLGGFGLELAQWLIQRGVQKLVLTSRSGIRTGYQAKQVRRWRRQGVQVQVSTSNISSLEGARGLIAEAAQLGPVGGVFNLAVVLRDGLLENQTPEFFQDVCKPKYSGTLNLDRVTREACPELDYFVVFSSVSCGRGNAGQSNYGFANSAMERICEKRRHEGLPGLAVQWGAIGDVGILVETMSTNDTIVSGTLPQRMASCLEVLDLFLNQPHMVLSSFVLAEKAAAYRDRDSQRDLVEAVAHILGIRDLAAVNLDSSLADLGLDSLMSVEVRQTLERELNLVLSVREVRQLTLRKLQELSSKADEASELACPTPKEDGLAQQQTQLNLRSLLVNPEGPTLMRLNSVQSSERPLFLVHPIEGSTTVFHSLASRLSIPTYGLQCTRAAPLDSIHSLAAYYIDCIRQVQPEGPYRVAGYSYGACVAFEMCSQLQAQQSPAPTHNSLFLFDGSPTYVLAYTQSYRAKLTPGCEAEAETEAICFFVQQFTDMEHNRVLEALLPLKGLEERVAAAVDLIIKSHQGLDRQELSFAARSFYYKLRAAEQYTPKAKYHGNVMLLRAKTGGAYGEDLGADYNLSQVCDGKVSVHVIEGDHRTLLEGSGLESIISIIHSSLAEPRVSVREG
Exercise: state measured inhibition at 100 µM for each of the compounds provided.
Provide the reading as a plain figure in %.

Query :: // query inhibition at 100 µM value for entry CCC(=O)NC(C)(C)CNC(=O)Nc1cc(C(=O)N2CCC(c3ccc(C#N)cc3)CC2)ccc1C [Example 262]
Result :: 98.7

Query :: // query inhibition at 100 µM value for entry CC(C)NC(=O)Nc1cc(C(=O)N2CCC(c3ccc(C#N)cc3)CC2)ccc1OC(F)(F)F [Example 4]
Result :: 86.1

Query :: // query inhibition at 100 µM value for entry Cc1ccc(C(=O)N2CCC(c3ccc(C#N)cc3)CC2)cc1NC(=O)NCc1ccn(C)n1 [Example 290]
Result :: 102

Query :: // query inhibition at 100 µM value for entry Cc1ccc(C(=O)N2CCC(c3ccc(C#N)cc3)CC2)cc1NC(=O)NC1CC1 [Example 225]
Result :: 89.9
